Target: UniProtKB O60674
Sequence (O60674 whole entry): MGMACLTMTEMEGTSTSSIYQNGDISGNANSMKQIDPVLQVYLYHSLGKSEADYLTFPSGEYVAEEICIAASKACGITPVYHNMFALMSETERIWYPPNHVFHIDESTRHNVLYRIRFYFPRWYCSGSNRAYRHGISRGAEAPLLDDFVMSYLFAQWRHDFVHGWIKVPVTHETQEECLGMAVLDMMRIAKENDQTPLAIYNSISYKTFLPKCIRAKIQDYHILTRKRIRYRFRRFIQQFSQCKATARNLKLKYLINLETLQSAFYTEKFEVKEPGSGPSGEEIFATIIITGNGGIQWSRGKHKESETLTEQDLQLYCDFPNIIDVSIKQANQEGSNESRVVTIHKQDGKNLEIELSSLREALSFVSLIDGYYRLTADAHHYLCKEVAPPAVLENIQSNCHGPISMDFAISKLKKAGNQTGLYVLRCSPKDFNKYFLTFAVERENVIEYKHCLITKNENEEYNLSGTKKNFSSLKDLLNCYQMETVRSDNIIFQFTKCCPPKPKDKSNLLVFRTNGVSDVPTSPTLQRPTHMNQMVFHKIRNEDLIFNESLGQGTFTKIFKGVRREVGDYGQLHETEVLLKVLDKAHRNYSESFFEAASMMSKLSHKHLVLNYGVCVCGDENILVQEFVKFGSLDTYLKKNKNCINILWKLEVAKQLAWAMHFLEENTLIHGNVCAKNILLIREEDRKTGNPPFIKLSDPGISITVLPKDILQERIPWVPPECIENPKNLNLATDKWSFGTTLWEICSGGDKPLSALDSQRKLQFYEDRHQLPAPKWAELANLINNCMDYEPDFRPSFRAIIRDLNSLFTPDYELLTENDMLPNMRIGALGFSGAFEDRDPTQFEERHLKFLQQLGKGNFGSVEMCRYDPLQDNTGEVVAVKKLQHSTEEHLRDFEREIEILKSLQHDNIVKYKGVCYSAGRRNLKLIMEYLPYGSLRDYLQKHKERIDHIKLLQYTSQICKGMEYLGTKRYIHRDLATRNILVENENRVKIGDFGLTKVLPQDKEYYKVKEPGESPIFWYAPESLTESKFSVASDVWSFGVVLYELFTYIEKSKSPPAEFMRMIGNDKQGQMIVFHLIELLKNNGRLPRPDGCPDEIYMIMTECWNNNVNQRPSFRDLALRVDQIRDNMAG
Experiment: in vitro JAK2 kinase activity test, Mobility Shift Assay
Format: biochemical
Details: compound concentration 0.1 μM; read-out: Percentage of inhibition against JAK2 at 0.1 μM
endpointLabel: inhibition at 0.1 µM (%)

{"columns": ["compound", "assayedTarget", "unitsLabel", "inhibition at 0.1 µM"],
 "data": [
  ["CC(=O)c1ccc(NC(=O)N2CCN(c3ccnc(Nc4ccc(OCCCN5CCOCC5)cc4)n3)CC2)cc1", "UniProtKB O60674", "%", 60.9],
  ["Cc1cnc(Nc2ccc(OCCN3CCCC3)cc2)nc1Nc1cccc(S(=O)(=O)NC(C)(C)C)c1 [Fedratinib, reference compound]", "UniProtKB O60674", "%", 95.2],
  ["Cc1cnc(Nc2ccc(N3CCOCC3)cc2)nc1N1CCN(C(=O)Nc2ccc(C#N)cc2)CC1", "UniProtKB O60674", "%", 88.5],
  ["O=C(Nc1ccc([N+](=O)[O-])cc1)N1CCN(c2ccnc(Nc3ccc(N4CCOCC4)cc3)n2)CC1", "UniProtKB O60674", "%", 79.3],
  ["COc1ccc(NC(=O)N2CCN(c3ccnc(Nc4ccc(N5CCOCC5)cc4)n3)CC2)cc1", "UniProtKB O60674", "%", 48.7],
  ["CC(=O)c1ccc(NC(=O)N2CCN(c3nc(Nc4ccc(N5CCOCC5)cc4)ncc3C(F)(F)F)CC2)cc1", "UniProtKB O60674", "%", 74.6]
]}

P. CCc1ccc(NC(=O)N2CCN(c3ccnc(Nc4ccc(N5CCOCC5)cc4)n3)CC2)cc1
Q. CN1CCN(c2ccc(Nc3nccc(N4CCN(C(=O)Nc5ccc(C(N)=O)cc5)CC4)n3)cc2)CC1
R. CC(=O)c1ccc(NC(=O)N2CCN(c3nc(Nc4ccc(N5CCOCC5)cc4)ncc3N)CC2)cc1
Challenge: Could you please sort these 3 entries by inhibition at 0.1 µM from high to low? Your reply should list the labels following the order given in the request.
Response given: Q, P, R

P. COC(=O)c1ccc(NC(=O)N2CCN(c3ccnc(Nc4ccc(N5CCOCC5)cc4)n3)CC2)cc1
Q. CC(=O)c1ccc(NC(=O)N2CCN(c3ccnc(Nc4ccc(OCCN5CCCC5)cc4)n3)CC2)cc1
Challenge: Between P and Q , which one shows the larger inhibition at 0.1 µM value? # answer = label of selected item
Response given: P
(P: 64.4%, Q: 45%)

I. CC(=O)c1ccc(NC(=O)N2CCN(c3ccnc(Nc4ccc(N5CCC(C)CC5)cc4)n3)CC2)cc1
II. CC(=O)c1ccc(NC(=O)N2CCC(Nc3nc(Nc4ccc(N5CCOCC5)cc4)ncc3C)CC2)cc1
Challenge: Between I and II , which one shows the larger inhibition at 0.1 µM value? # answer = label of selected item
Response given: II
(II: 80.5%, I: 53%)

----------
Target: FLT3 (Homo sapiens, UniProt P36888)
Sequence (P36888 27-993): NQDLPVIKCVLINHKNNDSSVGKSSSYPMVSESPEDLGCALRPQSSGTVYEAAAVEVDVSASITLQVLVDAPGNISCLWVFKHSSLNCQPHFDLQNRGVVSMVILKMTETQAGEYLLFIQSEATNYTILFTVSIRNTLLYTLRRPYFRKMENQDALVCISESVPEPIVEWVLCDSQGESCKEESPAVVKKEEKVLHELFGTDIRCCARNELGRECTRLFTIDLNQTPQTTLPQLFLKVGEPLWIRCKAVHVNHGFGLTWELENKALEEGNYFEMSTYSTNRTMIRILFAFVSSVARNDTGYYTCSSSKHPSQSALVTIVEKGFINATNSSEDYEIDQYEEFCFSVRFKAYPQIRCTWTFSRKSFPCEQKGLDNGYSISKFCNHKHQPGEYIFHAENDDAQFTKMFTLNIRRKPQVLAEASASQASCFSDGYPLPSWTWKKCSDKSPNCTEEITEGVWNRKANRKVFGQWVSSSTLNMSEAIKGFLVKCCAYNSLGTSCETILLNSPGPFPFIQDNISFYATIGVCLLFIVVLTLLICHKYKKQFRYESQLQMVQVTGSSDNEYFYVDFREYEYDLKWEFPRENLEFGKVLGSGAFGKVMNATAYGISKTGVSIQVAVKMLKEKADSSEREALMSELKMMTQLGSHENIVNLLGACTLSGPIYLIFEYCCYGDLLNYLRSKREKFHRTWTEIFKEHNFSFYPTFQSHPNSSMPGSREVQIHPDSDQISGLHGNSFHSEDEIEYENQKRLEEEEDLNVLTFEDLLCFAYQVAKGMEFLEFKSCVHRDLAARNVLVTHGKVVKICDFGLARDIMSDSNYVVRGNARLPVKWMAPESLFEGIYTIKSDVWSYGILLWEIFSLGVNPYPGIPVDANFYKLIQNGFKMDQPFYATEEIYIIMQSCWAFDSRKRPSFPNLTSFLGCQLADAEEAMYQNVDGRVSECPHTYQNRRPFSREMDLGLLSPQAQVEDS
Assay: in vitro FLT3 kinase activity test, Mobility Shift Assay
Format: biochemical
Conditions: compound concentration 0.1 μM; read-out: Percentage of inhibition against FLT3 at 0.1 μM
endpointLabel: inhibition at 0.1 µM (%)

As a guide, the following entries are already answered.
{"columns": ["compound", "inhibition at 0.1 µM [%]"],
 "data": [
  ["CC(=O)c1ccc(NC(=O)N2CCN(c3ccnc(Nc4ccc(OCCN5CCOCC5)cc4)n3)CC2)cc1 [Example 18]", 70.6],
  ["Cc1cnc(Nc2ccc(OCCN3CCCC3)cc2)nc1Nc1cccc(S(=O)(=O)NC(C)(C)C)c1 [Fedratinib, reference compound]", 88.7]
]}

a. CC(=O)c1ccc(NC(=O)N2CCN(c3ccnc(Nc4ccc(N5CCC(C)CC5)cc4)n3)CC2)cc1 [Example 17]
b. CCc1ccc(NC(=O)N2CCN(c3ccnc(Nc4ccc(N5CCOCC5)cc4)n3)CC2)cc1 [Example 3]
c. CC(=O)c1ccc(NC(=O)N2CCN(c3nc(Nc4ccc(N5CCOCC5)cc4)ncc3C(F)(F)F)CC2)cc1 [Example 26]
Challenge: Your job: order these 3 records by inhibition at 0.1 µM, ascending. Your reply should list the labels following the order given in the request.
Response given: b, a, c

I. CC(=O)c1ccc(NC(=O)N2CCC(Nc3nc(Nc4ccc(N5CCOCC5)cc4)ncc3C)C2)cc1 (stereo not drawn) [Example 28]
II. O=C(Nc1ccccc1)N1CCN(c2ccnc(Nc3ccc(N4CCOCC4)cc3)n2)CC1 [Example 4]
Challenge: I'm curious, which of these has a smaller inhibition at 0.1 µM number: I or II ? # answer = label of selected item
Response given: II
(II: 30.8%, I: 57.3%)

a. O=C(Nc1ccc(OC(F)(F)F)cc1)N1CCN(c2ccnc(Nc3ccc(N4CCOCC4)cc3)n2)CC1 [Example 2]
b. CC(=O)c1ccc(NC(=O)N2CCN(c3nc(Nc4ccc(N5CCOCC5)cc4)nc4ccsc34)CC2)cc1 [Example 24]
Challenge: Between a and b , which one shows the larger inhibition at 0.1 µM value? # answer = label of selected item
Response given: b

1. CC(=O)c1ccc(NC(=O)N2CCN(c3ccnc(Nc4ccc(N5CCOCC5)cc4)n3)CC2)cc1 [Example 6]
2. CNC(=O)c1ccc(NC(=O)N2CCN(c3ccnc(Nc4ccc(N5CCOCC5)cc4)n3)CC2)cc1 [Example 11]
Challenge: I'm curious, which of these has a smaller inhibition at 0.1 µM number: 1 or 2 ? # answer = label of selected item
Response given: 2

I. O=C(Nc1ccc([N+](=O)[O-])cc1)N1CCN(c2ccnc(Nc3ccc(N4CCOCC4)cc3)n2)CC1 [Example 7]
II. CC(=O)c1ccc(NC(=O)NC2CN(c3nc(Nc4ccc(N5CCOCC5)cc4)ncc3C)C2)cc1 [Example 31]
Challenge: Between I and II , which one shows the larger inhibition at 0.1 µM value? # answer = label of selected item
Response given: I
(I: 84.4%, II: 50%)
